target or system: D(4) dopamine receptor (Homo sapiens, UniProt P21917)
Sequence (P21917 whole entry): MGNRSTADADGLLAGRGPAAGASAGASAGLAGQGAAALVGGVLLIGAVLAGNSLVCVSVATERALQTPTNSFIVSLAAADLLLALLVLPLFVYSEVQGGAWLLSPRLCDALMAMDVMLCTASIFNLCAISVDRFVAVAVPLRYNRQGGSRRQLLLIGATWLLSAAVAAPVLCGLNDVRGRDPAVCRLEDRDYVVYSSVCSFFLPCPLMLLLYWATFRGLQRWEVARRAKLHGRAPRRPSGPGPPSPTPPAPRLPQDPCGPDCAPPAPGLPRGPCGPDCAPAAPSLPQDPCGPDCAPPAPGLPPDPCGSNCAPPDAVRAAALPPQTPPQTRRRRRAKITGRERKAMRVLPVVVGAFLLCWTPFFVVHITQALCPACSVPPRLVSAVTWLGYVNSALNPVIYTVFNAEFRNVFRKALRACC
quantity measured: Ki (nM)
Numeric only. Scale: nM

# input Find the recorded Ki belonging to Clc1ccc(SCCNCCCOc2ccccc2)cc1 and report it.
# output 33

# input Field entry: Cc1ccc(OCCNCCCOc2ccccc2)cc1Cl
# output 0.52

# input Field entry: Cc1ccc(OCCNCCCOc2ccccc2)cc1
# output 0.52

# input Field entry: Cc1ccc(OCCNCCCOc2ccc(Br)cc2)cc1
# output 27

----------
target or system: D(4) dopamine receptor (Homo sapiens)
pKi: −log10 of the molar value.
Please use true whenever pKi is not below 9, and false whenever it is.

# input Identify whether the reported pKi of the following compound is 9 or greater: Cc1ccc(OCCNCCCOc2ccccc2)cc1C
# output true

# input Field entry: Cc1ccc(SCCNCCCOc2ccccc2)cc1
# output false

# input Field entry: c1ccc(CCCNCCCOc2ccccc2)cc1
# output false

# input Field entry: Cc1ccc(OCCCNCCOc2ccccc2)cc1
# output false

# input Field entry: Cc1ccc(OCCCNCCOc2ccc(Cl)cc2)cc1
# output false

Origin of values: ChEMBL document CHEMBL1130257
